Values from patent US11192914B2

Tested on: ZIKV
Assay Procedure: ZIKV infectious (cytoprotection, XTT) assay
Format: cell-based, Zika virus
Condition Notes: ZIKV infectious assay, Vero cells; read-out: ZIKV EC50
Measurement Label: EC50 (nM)
# number only, unit nM dropped from output

EC50 for CC1(O)C(O)[C@@H](CO)O[C@H]1n1cnc2c(N)ncnc21 (stereo partly shown) [drawing 675] ? 2460

----------
Test system: ZIKV
Assay Procedure: ZIKV infectious (cytoprotection, XTT) assay
Type: cell-based
Condition Notes: Zika virus, Huh-7, Cell Line Huh-7; read-out: ZIKV EC50
Measurement Label: EC50

Example results:
C#CC1(O)C(O)[C@@H](COP(=O)(OCOC(=O)C(C)(C)C)OCOC(=O)C(C)(C)C)O[C@H]1n1cc(F)c(=O)[nH]c1=O (stereo partly drawn) : 5.3 µM
C#C[C@@]1(O)[C@H](O)[C@@H](CO)O[C@H]1n1cc(F)c(=O)[nH]c1=O : > 100 µM

Then this compound:
EC50 for C#C[C@@]1(O)[C@H](O)[C@@H](CO)O[C@H]1n1ccc(=O)[nH]c1=O ? > 100 µM
